Test target: SARS-CoV-2 nsp14 (Severe acute respiratory syndrome coronavirus 2)
Assay notes: biochemical
Experimental setup: 100 μM
Known Percent inhibition at 100 μM, nsp14 of a selection of compounds
Assay readout: Percent inhibition at 100 μM, nsp14 (%)

INSERT INTO results (compound, recorded_number) VALUES
  ('O=C(c1ccc2c3c([nH]c2c1)CCCC3)N1CCC[C@H]1c1nc(-c2ccncc2)no1', 11),
  ('Nc1ncnc2c1ncn2[C@@H]1O[C@H](COC(=O)c2ccc(S(=O)(=O)F)cc2)[C@@H](O)[C@H]1O', 58),
  ('CN1CC(=O)N(c2cccc(NC(=O)NC[C@H](O)CO)c2)C1=O', -1),
  ('O=C(CP(=O)(O)O)N=c1[nH]c2ccc(Cl)cc2s1', 7),
  ('O=C(Cc1csc(SCC(=O)c2ccccc2)n1)Nc1ccccc1', 27),
  ('O=C(NCc1cccnc1)C1CC(NCc2c(F)cccc2F)CN1Cc1ccccc1 (centres unmarked)', -2),
  ('Cc1cc(-c2ccc(C(=O)NCC(N)=O)cc2)nc(N2CCOCC2)n1', 3),
  ('CCOc1ccccc1OCC(=O)N1CCCC(c2nc3ccccc3s2)C1 (centres unmarked)', 6),
  ('NS(=O)(=O)c1ccc(NC2=NC(=O)C(CC(=O)O)S2)cc1 (centres unmarked)', 0),
  ('O=C(c1ccc(Cn2ccnc2)o1)N1CCc2[nH]c3ccc(Cl)cc3c2C1', 0),
  ('Cc1ccc(NC(=O)Cn2c(=O)n(CC(=O)NCc3ccco3)c(=O)c3ccccc32)cc1C', 10),
  ('CC(=O)N1N=C(c2ccc3c(c2)OCO3)CC1c1cn(-c2ccccc2)nc1C (centres unmarked)', 27),
  ('COc1ccccc1CN1CC(C(=O)NCc2n[nH]c(=O)[nH]2)CCC1=O (centres unmarked)', 0),
  ('Cn1cc(CCC(=O)N2CCCC(c3nc4ccccc4s3)C2)cn1 (centres unmarked)', 5),
  ('CC1(O)Cc2n[nH]c(O)c2C(c2ccccc2)C1 (centres unmarked)', 4),
  ('Cc1csc(C2CCCN(C(=O)CCn3cnc4c(N)ncnc43)C2)n1 (centres unmarked)', 15),
  ('O=C(Cc1ccc2c(c1)CCO2)Nc1ccc2nc[nH]c(=O)c2c1', -2);

* * *

Tested on: A549 cell culture
Assay notes: Cell permeability testing (LC/MS/MS of cell lysates and media)
Type: in vitro ADME, human
Experimental setup: A549, compound 20 μM, 24 h; LOQ 0.2 μM or 1%
Assay readout: Cell Permeability, 2 × 10^4 Cells/L (%)

INSERT INTO results (molecule, recorded_number) VALUES
  ('O=C(CCCn1cncn1)N1CCCC(c2nc3ccccc3s2)C1 (stereo not shown)', 0.7),
  ('O=C(Cn1c(=O)[nH]c2c(-c3ccccc3)c[nH]c2c1=O)NCc1cccnc1', 17.9);

* * *

System: A549 cell culture
Assay notes: Cell permeability testing (LC/MS/MS of cell lysates and media)
Type: in vitro ADME, human
Experimental setup: A549, compound 20 μM, 24 h; LOQ 0.2 μM or 1%
Below is a list of entries, each paired with its recorded Cell Permeability, 4 × 10^4 Cells/L value.
Assay readout: Cell Permeability, 4 × 10^4 Cells/L (%)

INSERT INTO measurements (molecule, test_target, unit_of_measurement, recorded_number) VALUES
  ('O=C(CCCn1cncn1)N1CCCC(c2nc3ccccc3s2)C1 (stereo not shown) [ZINC23398144]', 'A549 cell culture', '%', 0.6),
  ('O=C(Cn1c(=O)[nH]c2c(-c3ccccc3)c[nH]c2c1=O)NCc1cccnc1 [ZINC33037945]', 'A549 cell culture', '%', 30.8);
